From: patent US20210388087A1

Molecular target: T1, Human CD137 ECD (human)
T1 construct: also called 4-1BB
T1 sequence (chain, as listed by the source limits assumed): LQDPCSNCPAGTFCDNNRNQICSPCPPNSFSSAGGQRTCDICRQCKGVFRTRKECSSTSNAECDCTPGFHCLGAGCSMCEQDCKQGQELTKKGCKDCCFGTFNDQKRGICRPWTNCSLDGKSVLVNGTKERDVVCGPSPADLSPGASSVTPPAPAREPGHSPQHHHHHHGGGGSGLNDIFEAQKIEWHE
Experiment: SPR, vs parent H183/L072
Parameter Measured: fold change of affinity (fold)
Your answer is read as fold, so omit the unit and give the number.

Consider the worked cases shown below.
dBBDu183H A100N / dBBDu072L (antibody, name in Kabat numbering, V domains shown, as m1, one VH change) VH: QVQLVESGGGLVQPGRSLRLSCAASGFTFSNAWMHWVRQAPGKGLEWVAQIKDKGNAYAAYYAPSVKGRFTISRDDSKNSIYLQMNSLKTEDTAVYYCHYVHYASNSTVLPAFGVDAWGQGTTVTVSS VL: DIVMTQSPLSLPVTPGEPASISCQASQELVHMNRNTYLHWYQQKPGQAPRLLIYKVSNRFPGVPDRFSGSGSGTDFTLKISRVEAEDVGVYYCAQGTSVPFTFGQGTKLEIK = 0.4
dBBDu183H Y97W / dBBDu072L (antibody, name in Kabat numbering, V domains shown, as m1, one VH change) VH: QVQLVESGGGLVQPGRSLRLSCAASGFTFSNAWMHWVRQAPGKGLEWVAQIKDKGNAYAAYYAPSVKGRFTISRDDSKNSIYLQMNSLKTEDTAVYYCHYVHWASASTVLPAFGVDAWGQGTTVTVSS VL: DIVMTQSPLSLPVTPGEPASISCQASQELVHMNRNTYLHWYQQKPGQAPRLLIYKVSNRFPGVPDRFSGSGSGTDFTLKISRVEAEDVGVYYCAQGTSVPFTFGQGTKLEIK = 0.8

Switching to the query record.
Given item dBBDu183H G65T / dBBDu072L (antibody, name in Kabat numbering, V domains shown, as m1, one VH change) VH: QVQLVESGGGLVQPGRSLRLSCAASGFTFSNAWMHWVRQAPGKGLEWVAQIKDKGNAYAAYYAPSVKTRFTISRDDSKNSIYLQMNSLKTEDTAVYYCHYVHYASASTVLPAFGVDAWGQGTTVTVSS VL: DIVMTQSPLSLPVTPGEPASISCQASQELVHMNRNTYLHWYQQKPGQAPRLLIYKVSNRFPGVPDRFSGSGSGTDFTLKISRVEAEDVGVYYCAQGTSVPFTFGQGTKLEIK , the value recorded as its fold change of affinity is 1.3
